ASSAY_METHOD_TEXT: chemical genetic growth profiling, strain panel (AID 1159580);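 further: tested at 20 µM; growth read once vehicle control cultures reached saturation at 30 °C; 1 = growth at the plate median or of vehicle wells; lower values mean less growth of the strain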
SETUP_CONDITIONS: S. cerevisiae deletion strains, growth OD, locus YOR106W, strain vam3, active compounds read low
Among all 5,500 compounds or so, about 2,000 (36%) were called active. About 18% were inconclusive and are not listed. This is one part of the list.
Could you please report measured normalized growth for the items listed next?
Numbers only.

Record excerpt, results attached:
| MOLECULE | normalized growth |
| --- | --- |
| CC1(C)C(C(Cl)Cl)C2(Cl)C(Cl)C(Cl)C1(Cl)C2(Cl)Cl (stereo unspecified) | 0.95 |
| OC[C@@H]1CCCN2CCCC[C@H]12 | 1.05 |
| CC/C(=C(\c1ccccc1)c1ccc(OCCN(C)C)cc1)c1ccccc1 | 0.0773 |

Please give normalized growth for each item listed below.
1. NCCCC[C@H](N[C@@H](CCc1ccccc1)C(=O)O)C(=O)N1CCC[C@H]1C(=O)O
2. CN(C)CCOc1ccc(/C(=C(/CCCl)c2ccccc2)c2ccccc2)cc1
3. O=C(O)CCCCC1CCSS1 (stereo unspecified)
4. O=C1O[C@H](C(O)CO)C(O)=C1O (stereo partly specified)
5. Cc1c(O)c(O)cc2c1CC=C1[C@@]2(C)CC[C@@]2(C)C3C[C@](C)(C(=O)O)CC[C@]3(C)CC[C@]12C (stereo partly specified)
6. Nc1ncn([C@@H]2O[C@H](CO)[C@@H](O)[C@H]2O)c(=O)n1
7. Cc1ccc(/C(=C\CN2CCCC2)c2ccccn2)cc1

(A)
1
0.117
0.957
0.962
0.331
0.959
1.05

(Q) Any idea what normalized growth was measured for C=CC(C)(O)CC/C=C(\C)CCC=C(C)C (stereo unspecified) ?
(A) 0.881

---

ASSAY_METHOD_TEXT: chemical genetic growth profiling, strain panel (AID 1159580);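 further: tested at 20 µM; growth read once vehicle control cultures reached saturation at 30 °C; 1 = growth at the plate median or of vehicle wells; lower values mean less growth of the strain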
SETUP_CONDITIONS: S. cerevisiae deletion strains, growth OD, locus YPR167C, strain met16, active compounds read low
In all, about 5,500 compounds went through this assay and about 2,000 (36%) were called active. Inconclusive results (about 18%) are left out. This is one part of the list.
Could you please report measured normalized growth for the items listed next?
Give bare numbers.

Record excerpt, results attached:
| MOLECULE | normalized growth |
| --- | --- |
| O=C(OC1Cc2c(O)cc(O)cc2OC1c1cc(O)c(O)c(O)c1-c1c(C2Oc3cc(O)cc(O)c3CC2OC(=O)c2cc(O)c(O)c(O)c2)cc(O)c(O)c1O)c1cc(O)c(O)c(O)c1 (centres undefined) | 0.986 |
| COC(=O)Oc1ccccc1C(=O)O | 1.01 |
| O=C(O)c1cccnc1Nc1cccc(C(F)(F)F)c1 | 0.938 |

Consider the record given below.
(Q) Any idea what normalized growth was measured for Cc1c(O)c(O)cc2c1CC=C1[C@@]2(C)CC[C@@]2(C)C3C[C@](C)(C(=O)O)CC[C@]3(C)CC[C@]12C (some centres undefined) ?
(A) 0.948

---

ASSAY_METHOD_TEXT: chemical genetic growth profiling, strain panel (AID 1159580);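 further: tested at 20 µM; growth read once vehicle control cultures reached saturation at 30 °C; 1 = growth at the plate median or of vehicle wells; lower values mean less growth of the strain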
SETUP_CONDITIONS: S. cerevisiae deletion strains, growth OD, locus YFR010W, strain ubp6
In all, about 5,500 compounds went through this assay and about 2,000 (36%) were called active. Inconclusive results (about 18%) are left out. No stated cut-off is given here; in the data, active means normalized growth mostly below about 0.91 (no sharp cut-off); inconclusive means no clear call, values can overlap the other calls; inactive means mostly above about 0.92. The list shows a part of the results.
Pick from active, inactive when you respond.

Sample answers from the record:
| MOLECULE | GROUP_LABEL |
| --- | --- |
| CC(=O)/C(=C\c1ccccc1)CC(=O)O | inactive |
| CO[C@H]1/C=C/O[C@@]2(C)Oc3c(C)c(O)c4c(O)c(c5c(nc6cc(C)ccn65)c4c3C2=O)NC(=O)/C(C)=C\C=C\[C@H](C)[C@H](O)[C@@H](C)C(O)[C@@H](C)[C@H](OC(C)=O)[C@@H]1C (stereo not given in full) | inactive |
| CC1(C)C(C(Cl)Cl)C2(Cl)C(Cl)C(Cl)C1(Cl)C2(Cl)Cl (stereo not given) | inactive |

(Q) Which result was noted for this molecule in the test: COc1cccc(/C=C/C(=O)O)c1C(C)C
(A) inactive

(Q) Which result was noted for this molecule in the test: O=C(O)/C=C/C=C/c1ccccc1
(A) active

Origin of values: PubChem BioAssay AID1159580
